MEASUREMENT TARGET: CCR5 (UniProt P51681)
ASSAY METHOD TEXT: cell-based or functional assay
# anti-HIV potency (IC50, nM) by viral replication assay >= 0.4 nM gives Criterion met, anything below gives Criterion not met

Would you please look over these solved cases?
BINDER	CLASS LABEL
RANTES derivative: signature sequence SEQ ID NO: 6 fused to positions 10-68 of native RANTES (SEQ ID NO: 1) (ligand) QGPPLMWLQTCCFAYIARPLPRAHIKEYFYTSGKCSNPAVVFVTRKNRQVCANPEKKWVREYINSLEMS	Criterion met
RANTES derivative: signature sequence SEQ ID NO: 8 fused to positions 10-68 of native RANTES (SEQ ID NO: 1) (ligand) QGPPLMWMQSCCFAYIARPLPRAHIKEYFYTSGKCSNPAVVFVTRKNRQVCANPEKKWVREYINSLEMS	Criterion not met
RANTES derivative: signature sequence SEQ ID NO: 7 fused to positions 10-68 of native RANTES (SEQ ID NO: 1) (ligand) QGPPLMWTQVCCFAYIARPLPRAHIKEYFYTSGKCSNPAVVFVTRKNRQVCANPEKKWVREYINSLEMS	Criterion not met

Reported anti-HIV potency (IC50, nM) by viral replication assay at or above 0.4 nM? RANTES derivative: signature sequence SEQ ID NO: 16 fused to positions 10-68 of native RANTES (SEQ ID NO: 1) (ligand) QGPPGDTVLWCCFAYIARPLPRAHIKEYFYTSGKCSNPAVVFVTRKNRQVCANPEKKWVREYINSLEMS
Criterion not met

Reported anti-HIV potency (IC50, nM) by viral replication assay at or above 0.4 nM? RANTES derivative: signature sequence SEQ ID NO: 28 fused to positions 10-68 of native RANTES (SEQ ID NO: 1) (ligand) QGPPGSWSSVCCFAYIARPLPRAHIKEYFYTSGKCSNPAVVFVTRKNRQVCANPEKKWVREYINSLEMS
Criterion not met

Reported anti-HIV potency (IC50, nM) by viral replication assay at or above 0.4 nM? RANTES derivative: signature sequence SEQ ID NO: 22 fused to positions 10-68 of native RANTES (SEQ ID NO: 1) (ligand) QGPPLMSFQSCCFAYIARPLPRAHIKEYFYTSGKCSNPAVVFVTRKNRQVCANPEKKWVREYINSLEMS
Criterion met
